TEST: Toxicity liver stage against HepG2, at 10uM
Assay type: cell-based
Design: test concentration 10 uM, cell line HepG2-A16-CD81EGFP
REPORTED_CONDITIONS: human, HepG2-A16-CD81EGFP cells; read-out: INHIBITION
Quick reference for cytotoxicity at 10 µM among some compounds
READOUT: cytotoxicity at 10 µM (%)

- COMPOUND: "O=C(Cn1ccc2ccccc21)NCc1ccc(C(=O)O)cc1"
  VAL: -6.13
- COMPOUND: "CN(C)S(=O)(=O)c1ccc(-c2nc(C#N)c(NC(C)(C)C)o2)o1"
  VAL: -12.3
- COMPOUND: "c1ccc(-c2cnc(CN3CCCC3Cn3cccn3)o2)cc1 (stereo unspecified)"
  VAL: -13.6
- COMPOUND: "O=C1NCC(C(=O)Nc2ncc(Cc3ccc(F)cc3F)s2)N1 (stereo unspecified)"
  VAL: -4.01
- COMPOUND: "CN1C(=O)CCc2cc(NS(=O)(=O)Cc3cccc(F)c3)ccc21"
  VAL: 3.6
- COMPOUND: "COc1ccccc1-c1ccc(C(=O)N2C[C@@H]3CC[C@H]2CN(C)C3)cc1"
  VAL: -18.2
- COMPOUND: "CCNc1cc2c(nn1)CCN(C(=O)C1COc3ccccc3O1)C2 (stereo unspecified)"
  VAL: -6.34
- COMPOUND: "CS(=O)(=O)NCC(=O)N[C@H]1CN(c2cnccn2)C[C@@H]1C1CC1"
  VAL: -7.24
- COMPOUND: "NC(=O)N1CC2(CCNCC2)c2cc(Cl)ccc21"
  VAL: 1.79
- COMPOUND: "COCC1CCN(CCOc2ccc(C#N)cc2OC)CC1"
  VAL: 4.11
- COMPOUND: "CCc1ncnc2c1CCN(CC(=O)N(C)C)CC2"
  VAL: -106

---

Quick reference for cytotoxicity at 10 µM among some molecules
TEST: Toxicity liver stage against HepG2, at 10uM
Type: cell-based
Parameters: test concentration 10 uM, cell line HepG2-A16-CD81EGFP
REPORTED_CONDITIONS: human, HepG2-A16-CD81EGFP cells; read-out: INHIBITION
READOUT: cytotoxicity at 10 µM (%)

- MOLECULE: "CC(C)CNC(=O)c1cccc(CN2CCc3c(ncn3C)C2)c1"
  READOUT: "cytotoxicity at 10 µM"
  VAL: -6.98
- MOLECULE: "CC(C)c1nnc2n1CCN(C(=O)c1cccc(S(C)(=O)=O)c1)C2"
  READOUT: "cytotoxicity at 10 µM"
  VAL: -28.4
- MOLECULE: "CN(Cc1cc(Cl)ccc1Cl)Cc1ncnn1C"
  READOUT: "cytotoxicity at 10 µM"
  VAL: -0.943
- MOLECULE: "Cc1nnc(N2C[C@@H](OCC3CCCC3)[C@H]3OCCC[C@H]32)s1"
  READOUT: "cytotoxicity at 10 µM"
  VAL: 14.3
- MOLECULE: "CC(C)NC(=O)C(C)S(=O)(=O)c1cc2c(cc1Cl)OCCO2 (stereo not drawn)"
  READOUT: "cytotoxicity at 10 µM"
  VAL: -3.25
- MOLECULE: "CC(=O)N1CCCCC1c1ncnn1-c1ccc2nc(C)sc2c1 (stereo not drawn)"
  READOUT: "cytotoxicity at 10 µM"
  VAL: -12
- MOLECULE: "CCc1nc(CN2CCCN(C(=O)CC(F)(F)F)CC2)cs1"
  READOUT: "cytotoxicity at 10 µM"
  VAL: -18.9
- MOLECULE: "COc1ccc(OC2CCN(C(=O)c3ccc(C)[nH]c3=O)CC2)cc1"
  READOUT: "cytotoxicity at 10 µM"
  VAL: -3.22
- MOLECULE: "COc1ccccc1OCC(=O)NS(=O)(=O)c1ccc(Br)s1"
  READOUT: "cytotoxicity at 10 µM"
  VAL: -8.72
- MOLECULE: "O=C(O)[C@@H]1OCC(=O)N(Cc2cccc(Cl)c2)[C@@H]1c1ccccc1"
  READOUT: "cytotoxicity at 10 µM"
  VAL: 3.94
- MOLECULE: "CO[C@@H]1CCN(c2nnc(C)s2)C[C@@H]1Cc1ccccc1"
  READOUT: "cytotoxicity at 10 µM"
  VAL: 10.5
- MOLECULE: "CN(Cc1nnc(C2CC2)o1)Cc1ccccc1-c1ccccc1"
  READOUT: "cytotoxicity at 10 µM"
  VAL: 4.59
- MOLECULE: "Cn1cc(NC(=O)Cn2cc(-c3ccccc3)ncc2=O)cn1"
  READOUT: "cytotoxicity at 10 µM"
  VAL: -3.43
- MOLECULE: "Cc1cc(C)n(CC2CN(CC(=O)Nc3ccncc3)CCO2)n1 (stereo not drawn)"
  READOUT: "cytotoxicity at 10 µM"
  VAL: -3.18
- MOLECULE: "CCOc1ccc(Cc2c(O)nc(SC)n(-c3ccccc3)c2=O)cc1"
  READOUT: "cytotoxicity at 10 µM"
  VAL: 4.04
- MOLECULE: "CC(NC(=O)Cc1ccccc1F)(C(N)=O)c1cccc(Cl)c1 (stereo not drawn)"
  READOUT: "cytotoxicity at 10 µM"
  VAL: 17.6
- MOLECULE: "Cc1nc(-c2ccccc2F)sc1C(=O)N1CCC(=O)CC1"
  READOUT: "cytotoxicity at 10 µM"
  VAL: -7.42
- MOLECULE: "CCn1c(C2CCN(Cc3cc(C)n(NC(C)=O)c3C)CC2)n[nH]c1=O"
  READOUT: "cytotoxicity at 10 µM"
  VAL: 4.74
- MOLECULE: "Cc1cnc(C)c(N2CCCC(C/C=C/c3ccccc3)(C(=O)O)C2)n1 (stereo not drawn)"
  READOUT: "cytotoxicity at 10 µM"
  VAL: 9.42
- MOLECULE: "NC(=O)NC(=O)CCN1CCCN(c2nccs2)CC1"
  READOUT: "cytotoxicity at 10 µM"
  VAL: 11.1
- MOLECULE: "CN(C)C(=O)CN1C[C@H]2CC[C@@H](C1)N(C(=O)Cc1ccccc1Cl)C2"
  READOUT: "cytotoxicity at 10 µM"
  VAL: -11.2
- MOLECULE: "CCCS(=O)(=O)N1CCCN(CCCOC)CC1"
  READOUT: "cytotoxicity at 10 µM"
  VAL: 7.53
- MOLECULE: "c1ccc2oc(N3CCCC3Cn3cncn3)nc2c1 (stereo not drawn)"
  READOUT: "cytotoxicity at 10 µM"
  VAL: -14.4
- MOLECULE: "O=C(O)c1sccc1Oc1ccc(NC(=O)C2CC2)cc1"
  READOUT: "cytotoxicity at 10 µM"
  VAL: -4.77
- MOLECULE: "O=C(Cc1ccc(F)cc1Cl)N[C@@H]1CCNC[C@H]1O"
  READOUT: "cytotoxicity at 10 µM"
  VAL: -0.918
- MOLECULE: "Cc1cnn(CC(C)NCCc2cccs2)c1 (stereo not drawn)"
  READOUT: "cytotoxicity at 10 µM"
  VAL: -1.52
- MOLECULE: "CCCSc1ncccc1C(=O)NCc1ccc(S(N)(=O)=O)cc1"
  READOUT: "cytotoxicity at 10 µM"
  VAL: 6.02
- MOLECULE: "NC(=O)C1CCN(C(=O)NC(Cc2ccccc2)C(F)(F)F)CC1 (stereo not drawn)"
  READOUT: "cytotoxicity at 10 µM"
  VAL: -7.72
- MOLECULE: "CCC(CO)N(Cc1ccc(C(=O)O)cc1)Cc1ccsc1 (stereo not drawn)"
  READOUT: "cytotoxicity at 10 µM"
  VAL: 2.17
- MOLECULE: "CC(C)(C)n1ncc2c(=O)[nH]c(N3CC(O)C3)nc21"
  READOUT: "cytotoxicity at 10 µM"
  VAL: -8.61
- MOLECULE: "Cc1ccc(S(=O)(=O)N2CC[C@@H]3C[C@H](NC(=O)c4ccncc4)[C@@H]32)cc1"
  READOUT: "cytotoxicity at 10 µM"
  VAL: 0.385
- MOLECULE: "CCOc1ccc(C(=O)Nc2c(C)nc3scc(C)n3c2=O)cc1"
  READOUT: "cytotoxicity at 10 µM"
  VAL: -5.58
- MOLECULE: "CCc1c(C)nn(CCNC(=O)c2csc(C)n2)c1C"
  READOUT: "cytotoxicity at 10 µM"
  VAL: -2.78
- MOLECULE: "CC(=O)Nc1cccc(CNC(=O)N(C)Cc2ccccc2)c1"
  READOUT: "cytotoxicity at 10 µM"
  VAL: -2.11
- MOLECULE: "CC(NC(=O)C1=NN(C)C(=O)CC1)c1ccc(Cl)cc1Cl (stereo not drawn)"
  READOUT: "cytotoxicity at 10 µM"
  VAL: -10.4
- MOLECULE: "NC(=O)C1CCN(C(=O)c2ccccc2OCc2ccncc2)CC1"
  READOUT: "cytotoxicity at 10 µM"
  VAL: 1.02
- MOLECULE: "CCN(CCO)C(=O)c1cc(Cn2c(C)nc3ccccc32)[nH]n1"
  READOUT: "cytotoxicity at 10 µM"
  VAL: 8.51
- MOLECULE: "COc1ccccc1NC(=O)CC(C)NCc1scnc1C (stereo not drawn)"
  READOUT: "cytotoxicity at 10 µM"
  VAL: 0.686
- MOLECULE: "O=C(CCc1ccc(F)cc1)NS(=O)(=O)c1ccc2c(c1)OCCCO2"
  READOUT: "cytotoxicity at 10 µM"
  VAL: 4.4
- MOLECULE: "O=C(O)CN(Cc1ccsc1)CC1CCCO1 (stereo not drawn)"
  READOUT: "cytotoxicity at 10 µM"
  VAL: -4.39
- MOLECULE: "CC1(NC(=O)Cc2cccs2)CCS(=O)(=O)C1 (stereo not drawn)"
  READOUT: "cytotoxicity at 10 µM"
  VAL: 8.39
- MOLECULE: "Cc1ccnc(C2COCCN2C)n1 (stereo not drawn)"
  READOUT: "cytotoxicity at 10 µM"
  VAL: 3.59
- MOLECULE: "CCS(=O)(=O)NCCNc1cc(-n2cccc2)ncn1"
  READOUT: "cytotoxicity at 10 µM"
  VAL: -3.5
- MOLECULE: "CNC(=O)C1(c2cnccn2)CCCN1C(=O)c1ccc(F)cc1 (stereo not drawn)"
  READOUT: "cytotoxicity at 10 µM"
  VAL: 0.918
- MOLECULE: "O=C(Nc1cnc(Oc2ccccc2F)nc1)C1CC1"
  READOUT: "cytotoxicity at 10 µM"
  VAL: 0.0701
- MOLECULE: "CC(C)c1ncc(CN2CCCC2c2[nH]ncc2C(=O)N(C)C)cn1 (stereo not drawn)"
  READOUT: "cytotoxicity at 10 µM"
  VAL: 0.974
- MOLECULE: "Cn1cccc1C(=O)NC(C)(C(N)=O)c1cccc(Cl)c1 (stereo not drawn)"
  READOUT: "cytotoxicity at 10 µM"
  VAL: 4.07
- MOLECULE: "COc1cc(C2CC(=O)NCc3nc4sccn4c32)cc(OC)c1O (stereo not drawn)"
  READOUT: "cytotoxicity at 10 µM"
  VAL: -0.966
